// reported Blocking fold after conjugation (+20K) per item
Biological target: CD3 (antibody antigen coated on the ELISA plate in Examples 1 to 3) (Homo sapiens (Human)) (UniProt P07766)
Sequence (P07766 23-126 limits assumed): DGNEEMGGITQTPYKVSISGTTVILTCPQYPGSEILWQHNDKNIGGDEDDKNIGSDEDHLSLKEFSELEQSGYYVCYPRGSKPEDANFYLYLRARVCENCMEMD
Experiment: binding activity of the conjugated mutant compared with the wild-type antibody (ELISA as in Example 1)
// units = fold; emit number, no label

Name the recorded Blocking fold after conjugation (+20K) of the binder listed here: anti-CD3 antibody mutant VH-S53C conjugated with Molecule I (+20K) (antibody, V domains shown, Molecule I (+20K, shown only as a drawing) conjugated on Cys 53) VH: EVQLVESGGGLVQPGGSLRLSCAASGFTFSTYAMNWVRQAPGKGLEWVGRIRCKYNNYATYYADSVKDRFTISRDDSKNSLYLQMNSLKTEDTAVYYCARHGNFGNSYVSWFAYWGQGTLVTVSS VL: QTVVTQEPSLTVSPGGTVTLTCRSSTGAVTTSNYANWVQQKPGQAPRGLIGGTNKRAPGVPARFSGSLLGDKAALTLLGAQPEDEAEYFCALWYSNLWVFGGGTKLTVL 3

Others:
Name the recorded Blocking fold after conjugation (+20K) of the binder listed here: anti-CD3 antibody mutant VH-Y61C conjugated with Molecule I (+20K) (antibody, V domains shown, Molecule I (+20K; cleavable linker with PEG20K, shown only as a drawing) conjugated on Cys 61) VH: EVQLVESGGGLVQPGGSLRLSCAASGFTFSTYAMNWVRQAPGKGLEWVGRIRSKYNNYATCYADSVKDRFTISRDDSKNSLYLQMNSLKTEDTAVYYCARHGNFGNSYVSWFAYWGQGTLVTVSS VL: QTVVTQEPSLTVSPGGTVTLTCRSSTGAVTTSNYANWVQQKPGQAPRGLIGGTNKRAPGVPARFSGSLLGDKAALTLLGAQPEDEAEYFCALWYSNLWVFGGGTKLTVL 400
